# tested-target: hemagglutinin (HA) of influenza A/New Caledonia/20/99 (H1N1) (influenza A virus A/New Caledonia/20/99 (H1N1))
# assay-protocol: cell-based or functional assay
# reported VNA IC50; entries follow
I only need the number, in nM, no unit after it.

Recorded results for 2 binders are shown here.
| binder | units-text | VNA IC50 |
| --- | --- | --- |
| SD3021 (VHH) VHH: EVQLVESGGGVVQPGGSLRLSCAASISIFDIYAMDWYRQAPGKQRELVAVSFRDGSTYYADSVKGRFTISRDNSKNTLYLQMNSLRPEDTAVYLCHVSLYRDPLGVAGGLGVYWGKGALVTVSS | nM | 3 |
| SD3014 (VHH) VHH: EVQLVESGGGVVQPGGSLRLSCAASISIFDIYAMDWYRQAPGKQRELVAVSFRDGSTYYADSVKGRFTISRDNSKNTLYLQMNSLRAEDTAVYLCHVSLYRDPLGVAGGMGVYWGKGALVTVSS | nM | 3 |

Request: Which VNA IC50 is listed for SD3022 (VHH) VHH: EVQLVESGGGVVQPGGSLRLSCAASISIFDIYAMDWYRQAPGKQRELVAVSFRDGSTYYADSVKGRFTISRDNSKNTLYLQMNSLRPEDTAVYLCHVSLYRDPLGVAGGIGVYWGKGALVTVSS ?
Response: 8

Request: Then this binder: SD3079 (VHH) VHH: EVQLVESGGGVVQPGGSLRLSCAASISIFDIYAMDWYRQAPGKQRELVAVSFRDGSTYYADSVKGRFTISRDNSKNTLYLQMNSLRAEDTAVYYCHVSLYRDPLGVAGGLGVYWGQGTLVTVSS
Response: 5

Request: Check SD3119 (VHH) VHH: QVQLVESGGGVVQPGGSLRLSCAASISIFDIYAMDWYRQAPGKQRELVAVSFRDGSTYYADSVKGRFTISRDNSKNTLYLQMNSLRAEDTAVYYCHVSLYRDPLGVAGGIGVYWGQGTLVTVSS too.
Response: 3

Request: Let us now turn to SD3078 (VHH) VHH: EVQLVESGGGVVQPGGSLRLSCAASISIFDIYAMDWYRQAPGKQRELVSVSFRDGSTYYADSVKGRFTISRDNSKNTLYLQMNSLRAEDTAVYYCHVSLYRDPLGVAGGLGVYWGQGTLVTVSS
Response: 8

Request: Ok, now SD3031 (VHH) VHH: EVQLVESGGGLVQPGGSLRLSCAVSISIFDIYAMDWYRQAPGKQRDLVATSFRDGSTNYADSVKGRFTISRDNAKNTLYLQMNSLKPEDTAVYLCHVSLYRDPLGVAGGVGVYWGKGALVTVSS
Response: 37

Request: Same read-out for SD3020 (VHH) VHH: EVQLVESGGGVVQPGGSLRLSCAASISIFDIYAMHWYRQAPGKQRELVAVSFRDGSTYYADSVKGRFTISRDNSKNTLYLQMNSLRPEDTAVYLCHVSLYRDPLGVAGGMGVYWGKGALVTVSS ?
Response: 4

Request: What do you have for SD3019 (VHH) VHH: EVQLVESGGGVVQPGGSLRLSCAASISIFDIYAMHWYRQAPGKQRELVSVSFRDGSTYYADSVKGRFTISRDNSKNTLYLQMNSLRAEDTAVYLCHVSLYRDPLGVAGGMGVYWGKGALVTVSS ?
Response: 4

Request: Record: SD3030 (VHH) VHH: EVQLVESGGGLVQPGGSLRLSCAVSISIFDIYAMDWYRQAPGKQRDLVATSFRDGSTNYADSVKGRFTISRDNAKNTLYLQMNSLKPEDTAVYLCHVSLYRDPLGVAGGIGVYWGKGALVTVSS
Response: 8

Request: Thanks! And SD3033 (VHH) VHH: EVQLVESGGGLVQPGGSLRLSCAVSISIFDIYAMDWYRQAPGKQRDLVATSFRDGSTNYADSVKGRFTISRDNAKNTLYLQMNSLKPEDTAVYLCHVSLYRDPLGVAGGFGVYWGKGALVTVSS ?
Response: 51

Request: Entry to check: SD3018 (VHH) VHH: EVQLVESGGGVVQPGGSLRLSCAASISIFDIYAMHWYRQAPGKQRELVAVSFRDGSTYYADSVKGRFTISRDNSKNTLYLQMNSLRAEDTAVYLCHVSLYRDPLGVAGGMGVYWGKGALVTVSS
Response: 6
